measurement target: GABAB (Rattus norvegicus)
Construct: membranar receptors of various rats organs; from tissue; host or cells: rat cerebellum
Sequence (Q9Z0U4 17-960 limits assumed): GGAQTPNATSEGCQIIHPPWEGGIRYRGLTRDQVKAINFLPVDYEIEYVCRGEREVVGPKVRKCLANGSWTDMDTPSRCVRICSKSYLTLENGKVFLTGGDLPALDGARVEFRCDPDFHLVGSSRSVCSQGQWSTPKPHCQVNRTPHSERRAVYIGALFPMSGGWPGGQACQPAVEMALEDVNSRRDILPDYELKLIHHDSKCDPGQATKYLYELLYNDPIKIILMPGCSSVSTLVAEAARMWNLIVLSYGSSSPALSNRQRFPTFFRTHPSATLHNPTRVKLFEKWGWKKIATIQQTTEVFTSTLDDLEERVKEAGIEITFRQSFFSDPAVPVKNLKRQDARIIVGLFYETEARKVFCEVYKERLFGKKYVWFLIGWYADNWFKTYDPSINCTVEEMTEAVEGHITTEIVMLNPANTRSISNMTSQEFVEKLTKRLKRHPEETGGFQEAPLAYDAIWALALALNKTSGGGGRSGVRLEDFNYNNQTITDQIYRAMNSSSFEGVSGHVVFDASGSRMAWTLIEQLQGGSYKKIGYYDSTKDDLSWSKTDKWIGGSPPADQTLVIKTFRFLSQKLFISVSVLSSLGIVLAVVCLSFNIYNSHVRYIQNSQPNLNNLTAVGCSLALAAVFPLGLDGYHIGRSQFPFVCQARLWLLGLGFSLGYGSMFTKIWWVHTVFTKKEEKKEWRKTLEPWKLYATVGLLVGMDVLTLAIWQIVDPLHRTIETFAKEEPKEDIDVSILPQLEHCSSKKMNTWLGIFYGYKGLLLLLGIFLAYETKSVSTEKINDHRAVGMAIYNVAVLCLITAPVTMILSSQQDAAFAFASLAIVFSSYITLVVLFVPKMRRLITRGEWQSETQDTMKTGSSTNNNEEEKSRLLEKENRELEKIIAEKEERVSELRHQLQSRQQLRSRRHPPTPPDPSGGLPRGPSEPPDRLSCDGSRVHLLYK
Sequence (O88871 41-940 partner): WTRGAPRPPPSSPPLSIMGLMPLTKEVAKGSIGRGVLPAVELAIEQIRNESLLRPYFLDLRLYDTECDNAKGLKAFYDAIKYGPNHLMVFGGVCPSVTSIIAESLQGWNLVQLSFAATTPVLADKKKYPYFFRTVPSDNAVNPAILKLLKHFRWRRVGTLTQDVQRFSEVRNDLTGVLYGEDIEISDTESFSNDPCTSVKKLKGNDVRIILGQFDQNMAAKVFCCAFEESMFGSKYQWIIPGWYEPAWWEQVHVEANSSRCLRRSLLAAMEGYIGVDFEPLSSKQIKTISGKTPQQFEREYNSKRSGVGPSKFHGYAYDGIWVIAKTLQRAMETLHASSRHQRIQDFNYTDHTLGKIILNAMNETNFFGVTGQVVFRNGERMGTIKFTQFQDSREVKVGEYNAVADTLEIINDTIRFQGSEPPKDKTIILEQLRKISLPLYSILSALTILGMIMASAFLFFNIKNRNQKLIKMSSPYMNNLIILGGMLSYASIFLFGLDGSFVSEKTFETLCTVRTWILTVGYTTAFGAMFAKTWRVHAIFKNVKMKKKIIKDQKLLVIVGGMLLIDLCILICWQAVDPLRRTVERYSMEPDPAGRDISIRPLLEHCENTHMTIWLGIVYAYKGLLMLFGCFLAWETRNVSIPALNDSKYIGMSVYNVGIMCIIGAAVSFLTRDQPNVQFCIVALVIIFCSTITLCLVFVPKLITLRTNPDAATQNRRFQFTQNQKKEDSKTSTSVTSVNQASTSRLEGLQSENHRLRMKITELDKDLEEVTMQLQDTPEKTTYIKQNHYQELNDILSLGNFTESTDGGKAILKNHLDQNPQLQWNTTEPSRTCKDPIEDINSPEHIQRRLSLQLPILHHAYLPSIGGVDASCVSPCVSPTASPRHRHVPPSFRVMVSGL
assay procedure: Affinity for GABAB ([3H]Baclofen)
Assay type: binding
test settings: rat cerebellum; 20 nM [3H]Baclofen, pH 7.4; read-out: CI50 (the source's name)
The entries below are paired with their reported IC50.
measured endpoint: IC50

INSERT INTO results (compound, reported_measurement) VALUES
  ('COc1ccc(CN(CCN(C)C)c2ccccn2)cc1', '> 10 µM'),
  ('CC(C)(C)c1ccc(C(O)CCCN2CCN(c3nc4ccccc4n3Cc3ccc(F)cc3)CC2)cc1 (centres unmarked)', '> 10 µM');

====

measurement target: H1-receptors of guinea pigs lungs (Cavia porcellus, UniProt P31389)
Sequence (P31389 whole entry): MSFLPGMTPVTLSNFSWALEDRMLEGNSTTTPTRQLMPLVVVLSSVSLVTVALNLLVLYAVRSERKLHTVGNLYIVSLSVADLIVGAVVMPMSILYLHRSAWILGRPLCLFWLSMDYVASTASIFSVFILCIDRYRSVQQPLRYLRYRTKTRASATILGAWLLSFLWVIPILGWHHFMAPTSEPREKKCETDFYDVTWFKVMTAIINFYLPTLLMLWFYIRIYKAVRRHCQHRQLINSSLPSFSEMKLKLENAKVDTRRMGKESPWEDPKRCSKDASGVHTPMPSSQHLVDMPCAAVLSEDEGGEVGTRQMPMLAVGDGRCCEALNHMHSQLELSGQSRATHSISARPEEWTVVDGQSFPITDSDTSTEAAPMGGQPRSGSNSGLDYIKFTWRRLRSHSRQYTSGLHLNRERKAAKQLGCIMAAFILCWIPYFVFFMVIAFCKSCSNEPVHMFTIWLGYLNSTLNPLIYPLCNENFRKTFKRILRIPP
pIC50: −log10 of the molar value.
measured endpoint: pIC50

INSERT INTO measurements (molecule, reported_measurement) VALUES
  ('CC(C)(C)c1ccc(C(O)CCCN2CCN(c3nc4ccccc4n3Cc3ccc(F)cc3)CC2)cc1 (stereo not shown) [example III]', 5.57);

====

measurement target: Muscarinic M1 (Rattus norvegicus)
Sequence (P08482 1-460): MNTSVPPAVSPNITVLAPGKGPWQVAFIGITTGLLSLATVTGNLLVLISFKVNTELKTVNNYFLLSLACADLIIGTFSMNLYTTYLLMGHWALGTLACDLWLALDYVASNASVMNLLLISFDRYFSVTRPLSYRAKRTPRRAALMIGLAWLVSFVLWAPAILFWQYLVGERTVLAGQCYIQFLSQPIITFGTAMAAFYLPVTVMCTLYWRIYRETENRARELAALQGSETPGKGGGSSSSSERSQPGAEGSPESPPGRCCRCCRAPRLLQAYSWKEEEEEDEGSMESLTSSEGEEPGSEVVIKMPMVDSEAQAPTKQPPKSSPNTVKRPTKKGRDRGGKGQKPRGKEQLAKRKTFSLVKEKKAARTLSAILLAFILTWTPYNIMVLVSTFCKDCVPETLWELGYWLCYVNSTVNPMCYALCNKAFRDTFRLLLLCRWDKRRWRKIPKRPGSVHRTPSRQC
pIC50: −log10 of the molar value.
measured endpoint: pIC50

INSERT INTO measurements (molecule, reported_measurement) VALUES
  ('CC(C)(C)c1ccc(C(O)CCCN2CCN(c3nc4ccccc4n3Cc3ccc(F)cc3)CC2)cc1 (stereo not shown)', '< 5.00');

====

measurement target: Sigma receptor (Rattus norvegicus, UniProt Q9R0C9)
Construct: membranar receptors of various rats organs; from tissue; host or cells: rat whole brain
Sequence (Q9R0C9 whole entry): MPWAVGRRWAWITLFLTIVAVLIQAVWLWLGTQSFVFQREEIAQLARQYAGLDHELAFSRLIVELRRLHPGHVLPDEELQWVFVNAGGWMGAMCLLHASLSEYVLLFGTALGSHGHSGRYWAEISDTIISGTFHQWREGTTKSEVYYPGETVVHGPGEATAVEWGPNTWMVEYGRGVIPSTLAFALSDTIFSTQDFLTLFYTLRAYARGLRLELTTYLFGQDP
assay procedure: Affinity for Sigma receptors ([3H](+)3-PPP)
Format: binding
test settings: rat whole brain; 2 nM [3H](+)3-PPP, pH 8; read-out: CI50 (the source's name)
measured endpoint: IC50

INSERT INTO measurements (compound, measurement_target, reported_measurement) VALUES
  ('CC(C)(C)c1ccc(C(O)CCCN2CCN(c3nc4ccccc4n3Cc3ccc(F)cc3)CC2)cc1 (stereo not shown) [example III]', 'Sigma receptor (Rattus norvegicus, UniProt Q9R0C9)', '> 10 µM');

====

measurement target: Adenosine A2 (Rattus norvegicus)
Construct: membranar receptors of various rats organs; from tissue; host or cells: rat striatum
Sequence (P30543 whole entry): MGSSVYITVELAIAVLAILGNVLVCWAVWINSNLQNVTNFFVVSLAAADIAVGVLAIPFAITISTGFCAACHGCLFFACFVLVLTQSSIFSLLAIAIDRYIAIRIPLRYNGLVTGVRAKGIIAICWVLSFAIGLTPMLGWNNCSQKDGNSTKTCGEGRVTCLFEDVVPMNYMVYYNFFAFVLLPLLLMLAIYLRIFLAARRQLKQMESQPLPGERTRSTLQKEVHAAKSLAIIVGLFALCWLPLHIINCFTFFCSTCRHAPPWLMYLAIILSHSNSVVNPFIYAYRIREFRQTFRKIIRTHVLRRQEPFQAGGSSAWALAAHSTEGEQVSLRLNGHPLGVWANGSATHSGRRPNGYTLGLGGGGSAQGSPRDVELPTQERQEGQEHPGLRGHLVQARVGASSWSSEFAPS
assay procedure: Affinity for adenosine A2 ([3H]NECA)
Type: binding
pIC50: −log10 of the molar value.
measured endpoint: pIC50

INSERT INTO assay_data (compound, measurement_target, reported_measurement) VALUES
  ('CC(C)(C)c1ccc(C(O)CCCN2CCC(C(O)(c3ccccc3)c3ccccc3)CC2)cc1 (stereo not shown)', 'Adenosine A2 (Rattus norvegicus)', '< 5.00');
